tested on: NCI/ADR-RES ovarian; test: NCI tumour cell line growth inhibition, 48 h
Listed compounds paired with reported TGI
Lab book: enter the figure in µM, no units written.

1) COC(=O)c1ccc(CN2C(=O)C(Cl)=C(Nc3ccc(OC)c(Cl)c3)C2=O)cc1; 30.9

Please look at the following compound next.
# get_value(readout='TGI', item= COC(=O)c1cc(C)ccc1C1CN=NC12Cc1c(C)cc(C)cc1C2=O (stereo not given) )
46.8

---

List of TGI values.
tested on: TK-10 renal; assay: NCI tumour cell line growth inhibition, 48 h

1) COc1cc2ncnc3c2cc1OCCCCCN(C)Cc1ccc(Br)cc1N3; > 100 µM
2) Clc1ccc2c(c1)[nH]c1c2nc2sccn21; > 100 µM
3) CC1=CC[C@](C)(O)[C@@]2(C)CC[C@H]3C(=C(C)C)C(=O)C[C@]3(C)C[C@H]12; > 50 µM
4) CC1(O)CCC2(C)C(=O)C1(C)CCC21OCCO1 (stereo not given); > 100 µM
5) Cc1ccc(/C=C2/NC(=S)SC2=O)cc1; 53.9 µM

Bench note: what TGI did "CC(=O)Nc1ccc(/C=C2/NC(=S)N(/C=C3\C(=O)Oc4ccccc4C3=O)C2=O)cc1" show?
> 100 µM

Param item = "C[C@]12CCC(=O)C=C1CC[C@@H]1[C@@H]2[C@@H](O)C[C@@]2(C)[C@H]1CC[C@]2(O)C(=O)COC(=O)CCC1CCCC1" ; retrieve measured TGI.
> 100 µM

What value of TGI has been reported for the following compound? "COC(=O)c1ccc(CN2C(=O)C(Cl)=C(Nc3ccc(OC)c(Cl)c3)C2=O)cc1"
> 50 µM

For the compound "Oc1c(CN2CCCC2)cc(CSCc2ccccc2)c2cccnc12" , what TGI is on record?
13.1 µM

Which TGI is listed for COC(=O)[C@]1(C)C(OC)=CC(=O)C2C1[C@H]1CCC[C@@H]21 (stereo not given in full) ?
> 100 µM

---

tested on: EKVX NSCLC; experiment: NCI tumour cell line growth inhibition, 48 h; in the data active = GI50 below about 0.43 µM; inactive = the rest
One label from this list, please: class 1 for active, class 0 for inactive

Some solved entries appear below for comparison.
1) CCCCNC(=O)Oc1ccc(/C(=C(/CC)Cc2ccccc2)c2ccc(OCCN3CCCCCC3)cc2)cc1; class 0
2) O=C(N/N=C/c1ccc(Cl)cc1)c1[nH]c2ccc(Cl)cc2c1-c1ccccc1; class 1

Please share the test call associated with "CC[C@]1(O)C[C@@H]2CN(CCc3c([nH]c4ccccc34)[C@@](C(=O)OC)(c3cc4c(cc3OC)N(C)[C@H]3[C@@](O)(C(N)=O)[C@H](O)[C@]5(CC)[C@@H]6C[C@@H]6CN6CC[C@]43[C@@H]65)C2)C1" .
class 1

Per the records of this test, what outcome belongs to "CC[C@@]12C=CCN3CC[C@]4(c5cc(NC(=O)COc6cc(OCC(=O)Nc7cc8c(cc7OC)N(C)[C@H]7[C@@](O)(C(=O)OC)[C@H](OC(C)=O)[C@]9(CC)C=CCN%10CC[C@]87[C@@H]%109)cc7oc(-c8ccccc8)cc(=O)c67)c(OC)cc5N(C)[C@@H]4[C@](O)(C(=O)OC)[C@H]1OC(C)=O)[C@H]32" ?
class 0

For this molecule, state the assay outcome: "Clc1ccc2c(c1)C(N1CCNCC1)=Nc1ccccc1O2"
class 0
